- Tested on: KM12 wild type colon carcinoma cell line harboring the TPM3-NTRK1 fusion protein
- assay-comment: NTRK wild type cellular assay (CellTiter-Glo growth inhibition)
- Type: cell-based
- condition-summary: Homo sapiens, KM12, 72 h, 72 hr, CellTiter-Glo; read-out: KM12 (WT) IC50
test-readout: IC50

CN(Cc1cc(F)ccc1F)C(=O)c1n[nH]c2ncnc(N[C@@H]3CCC[C@H]3O)c12 [Compound 6] : 10 to 100 nM

Hey, quick one: what's IC50 for each of these?
1. O=C(c1n[nH]c2ncnc(N[C@@H]3CCOC[C@H]3O)c12)N1C[C@@H](F)C[C@@H]1c1ccccc1 [Compound 145]
2. CN(Cc1cc(F)ccc1Cl)C(=O)c1n[nH]c2ncnc(N[C@@H]3COC[C@@H](O)[C@H]3O)c12 [Compound 162]
3. Cc1ccc(F)cc1CNC(=O)c1n[nH]c2ncnc(N[C@@H]3CC[C@@H](O)[C@H]3O)c12 [Compound 2]

RESULT:
1: 10 to 100 nM; 2: 10 to 100 nM; 3: 100 to 1000 nM
